# System: LG0567-F671-PDC complex spheroids viability;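 note: luminescence signal used as a proxy for viable cells; spheroids exposed to compound for seven days before readout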
# EXPERIMENT NOTES: Anticancer human tumor LG0567-F671-PDC patient-derived lung adenocarcinoma cell line growth inhibition [RAS]
# CONDITION INFO: curve of first compound; second compound 0.3 µM
I'd be grateful if you could share measured IC50 for these entries.

>>> endpoint_result("Cc1nc(N2CCC3(CC2)COC(C)C3N)c(CO)nc1Sc1ccnc(N)c1Cl (centres undefined) + CCn1c(-c2cc(N3CCN(C)CC3)cnc2C(C)OC)c2c3cc(ccc31)-c1csc(n1)CC(NC(=O)C1CC1C)C(=O)N1CCCC(N1)C(=O)OCC(C)(C)C2")
"< 31.6 nM"

Take each entry in turn and give its IC50.
1. Nc1ccn(C2OC(CO)C(O)C2(F)F)c(=O)n1 (centres undefined) + CCn1c(-c2cc(N3CCN(C)CC3)cnc2C(C)OC)c2c3cc(ccc31)-c1csc(n1)CC(NC(=O)C1CC1C)C(=O)N1CCCC(N1)C(=O)OCC(C)(C)C2
2. C[C@@H](NC(=O)c1ncnc(N)c1Cl)c1ncc(C(=O)Nc2cc(C(F)(F)F)c(Cl)cn2)s1 + CCn1c(-c2cc(N3CCN(C)CC3)cnc2C(C)OC)c2c3cc(ccc31)-c1csc(n1)CC(NC(=O)C1CC1C)C(=O)N1CCCC(N1)C(=O)OCC(C)(C)C2
3. C=CC(=O)Nc1cc(Nc2nccc(-c3cn(C)c4ccccc34)n2)c(OC)cc1N(C)CCN(C)C + CCn1c(-c2cccnc2C(C)OC)c2c3cc(ccc31)N1CCOC(CC(NC(=O)C(C(C)C)N(C)C(=O)C3(F)CCN(C(=O)C#CC(C)(C)N(C)C)CC3)C(=O)N3CCCC(N3)C(=O)OCC(C)(C)C2)C1

["< 3.16 nM", "< 31.6 nM", "< 3.16 nM"]

Source: PubChem BioAssay AID2060889
